# study-system: T1, CRBN, Q96SW2;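 note: pooled lentiviral library of zinc finger degron-EGFP fusions in mCherry-positive Jurkat cells, FACS-sorted after compound exposure, with degron abundance counted by next-generation sequencing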
# T1 chain: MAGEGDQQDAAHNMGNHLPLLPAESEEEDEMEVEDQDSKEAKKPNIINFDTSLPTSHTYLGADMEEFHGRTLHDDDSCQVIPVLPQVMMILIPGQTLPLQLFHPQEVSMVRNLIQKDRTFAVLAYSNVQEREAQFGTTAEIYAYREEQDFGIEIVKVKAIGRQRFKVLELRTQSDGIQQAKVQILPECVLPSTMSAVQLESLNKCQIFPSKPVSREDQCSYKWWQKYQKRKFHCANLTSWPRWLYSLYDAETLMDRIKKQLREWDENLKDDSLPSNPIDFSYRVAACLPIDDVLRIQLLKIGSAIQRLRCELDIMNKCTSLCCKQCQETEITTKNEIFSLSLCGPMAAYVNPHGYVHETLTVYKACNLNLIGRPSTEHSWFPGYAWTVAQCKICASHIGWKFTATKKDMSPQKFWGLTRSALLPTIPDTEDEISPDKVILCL
# assay-text: log2 fold change of degron read counts, EGFP-low vs EGFP+ sorted cells (limma voom), compound-induced degradation; higher = more compound-induced degradation of the degron-EGFP fusion; degrons are variants of IKZF1/3 zinc finger 2; compound dose not given here
# run-conditions: Jurkat; 18 h; compound: compound 19 (5-tert-butyl-thalidomide)
Over roughly 8,300 sequences, “log2 fold change of degron read counts, EGFP-low vs EGFP+ sorted cells (limma voom), compound-induced degradation” has its median near -1.1; the highest 2% begin near 3.2. The sample holds the highest values, similar sequences and a random draw of the others, so the mix is not that of the screen.
Parameter log2 fold change of degron read counts: see the listing below.
The reply should be a number, written without any unit.

Study these solved cases before continuing.
LSCPICGFFCTQKGNLLRHIKL [46L_47S_49P_50I_52G_53F_54F_55C_67L_, Q9UKT9]	2.05
FLCDICGARFTQKGNLLRHIKL [46F_47L_49D_50I_52G_53A_54R_55F_67L_, Q9UKT9]	-0.594
LHCPICGFFCTQKGNLLRHIKL [46L_47H_49P_50I_52G_53F_54F_55C_67L_, Q9UKT9]	2.35
LGCPICGFFCTQKGNLLRHIKL [46L_47G_49P_50I_52G_53F_54F_55C_67L_, Q9UKT9]	3.27

Prompt: Given FDCEICGALFTQKGNLLRHIKL [46F_47D_49E_50I_52G_53A_54L_55F_67L_, Q9UKT9] , state its recorded log2 fold change of degron read counts.
Response: -0.733

Prompt: Same read-out for FCCEVCGADFTQKGNLLRHIKL [46F_47C_49E_50V_52G_53A_54D_55F_67L_, Q9UKT9] ?
Response: -0.0408

Prompt: Same read-out for FACDICGARFTQKGNLLRHIKL [46F_47A_49D_50I_52G_53A_54R_55F_67L_, Q9UKT9] ?
Response: 3.46

Prompt: Same read-out for FHCEVCGAAFTQKGNLLRHIKL [46F_47H_49E_50V_52G_53A_54A_55F_67L_, Q9UKT9] ?
Response: 3.08

Prompt: Same read-out for FFCDICGARFTQKGNLLRHIKL [46F_47F_49D_50I_52G_53A_54R_55F_67L_, Q9UKT9] ?
Response: 3.58

Prompt: Same read-out for FQCEVCGAAFTQKGNLLRHIKL [46F_47Q_49E_50V_52G_53A_54A_55F_67L_, Q9UKT9] ?
Response: 2.72

Prompt: Same read-out for FHCNQCGAKFTQKGNLLRHIKL [46F_47H_49N_50Q_52G_53A_54K_55F_67L_, Q9UKT9] ?
Response: -1.43
